Molecular target: T1, Recombinant hIL-21-Fc (AcroBiosystems) (human, UniProt Q9HBE4 30-162)
T1 construct: bought; also called rhIL-21; not shown: Fc of the bought reagent, not described
T1 sequence (Q9HBE4 30-162): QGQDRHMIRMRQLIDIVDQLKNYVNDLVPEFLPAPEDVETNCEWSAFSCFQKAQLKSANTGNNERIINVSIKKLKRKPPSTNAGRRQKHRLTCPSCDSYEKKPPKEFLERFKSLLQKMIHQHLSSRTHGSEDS
Test: SPR, Fab on captured rhIL-21-Fc
This listing pairs binders with measured Kd.
MEASUREMENT_KIND: Kd (pM)

# BINDER, REPORTED_RELATION, MEASURED
measured = [
    ("ZAP122m26 Fab (Fab, V domains shown, Fab) VH: QVQLQESGPGLVKPSETLSLTCTVSGGSISSDFWGWIRQPPGKGLEWIGYISSRGSTNYNPSLKRRVTISVDTSRNQFSLKLSSVTAADTAVYYCARSAGVTDFAFWGQGTLVTVSS VL: DIQMTQSPSSVSASVGDRVTITCRASQGISSWLAWYQHKPGKAPKLLIYVASSLQSGVPSRFSGSGSGTDFTLTISSLQPEDFATYYCQQANSFPLTFGGGTKVEIK", "=", 3010),
    ("ZAP122m10 Fab (Fab, V domains shown, Fab) VH: QVQLQESGPGLVKPSETLSLTCTVSGGSISSDFWGWIRQPPGKGLEWIGYISSRGSTNYNPSLKRRVTISVDTSRNQFSLKLSSVTAADTAVYYCARSAGVTDFDFWGQGTLVTVSS VL: DIQMTQSPSSVSASVGDRVTITCRASQGISSWLAWYQHKPGKAPKLLIYVASSLQSGVPSRFSGSGSGTDFTLTISSLQPEDFATYYCQQANSFPATFGGGTKVEIK", "=", 2400),
    ("ZAP122m2 Fab (Fab, V domains shown, Fab) VH: QVQLQESGPGLVKPSETLSLTCTVSGGSISSDFWGWIRQPPGKGLEWIGYISSRGSTNYNPSLKRRVTISVDTSKNQFSLKLSSVTAADTAVYYCARSAGVTDFDFWGQGTLVTVSS VL: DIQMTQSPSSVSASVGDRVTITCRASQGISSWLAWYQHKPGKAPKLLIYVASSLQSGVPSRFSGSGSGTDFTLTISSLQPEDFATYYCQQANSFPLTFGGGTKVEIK", "=", 34),
    ("ZAP122m20 Fab (Fab, V domains shown, Fab) VH: QVQLQESGPGLVKPSETLSLTCTVSGGSISSDFWGWIRQPPGKGLEWIGYISSRGSTNYNPSLKRRVTISVDTSRNQFSLKLSSVTAADTAVYYCARAAGVTDFDFWGQGTLVTVSS VL: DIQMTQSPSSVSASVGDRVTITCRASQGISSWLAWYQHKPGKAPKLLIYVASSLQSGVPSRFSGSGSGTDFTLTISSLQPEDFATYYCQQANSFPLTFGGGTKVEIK", "=", 43.5),
    ("ZAP122m1 Fab (Fab, V domains shown, Fab) VH: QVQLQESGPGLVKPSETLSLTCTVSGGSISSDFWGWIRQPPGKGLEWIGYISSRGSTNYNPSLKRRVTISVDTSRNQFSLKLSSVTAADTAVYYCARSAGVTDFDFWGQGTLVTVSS VL: DIQMTQSPSSVSASVGDRVTITCRASQGISSWLAWYYHKPGKAPKLLIYVASSLQSGVPSRFSGSGSGTDFTLTISSLQPEDFATYYCQQANSFPLTFGGGTKVEIK", "=", 51.7),
    ("ZAP122p2 Fab (Fab, V domains shown, Fab) VH: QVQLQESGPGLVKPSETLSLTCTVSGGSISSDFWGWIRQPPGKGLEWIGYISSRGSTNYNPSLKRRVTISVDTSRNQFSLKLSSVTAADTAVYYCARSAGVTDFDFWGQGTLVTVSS VL: DIQMTQSPSSVSASVGDRVTITCRASQGISSWLAWYQHKPGKAPKLLIYVASSLQSGVPSRFSGSGSGTDFTLTISSLQPEDFATYYCQQASSFPLTFGGGTKVEIK", "=", 32.8),
    ("ZAP122m14 Fab (Fab, V domains shown, Fab) VH: QVQLQESGPGLVKPSETLSLTCTVSGGSISSDFWSWIRQPPGKGLEWIGYISSRGSTNYNPSLKRRVTISVDTSRNQFSLKLSSVTAADTAVYYCARSAGVTDFDFWGQGTLVTVSS VL: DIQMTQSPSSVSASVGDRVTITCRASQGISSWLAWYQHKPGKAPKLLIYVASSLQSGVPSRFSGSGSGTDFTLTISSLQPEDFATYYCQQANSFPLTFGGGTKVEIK", "=", 1010),
    ("ZAP122m23 Fab (Fab, V domains shown, Fab) VH: QVQLQESGPGLVKPSETLSLTCTVSGGSISSDFWGWIRQPPGKGLEWIGYISSRGSTNYNPSLKRRVTISVDTSRNQFSLKLSSVTAADTAVYYCARSAGVADFDFWGQGTLVTVSS VL: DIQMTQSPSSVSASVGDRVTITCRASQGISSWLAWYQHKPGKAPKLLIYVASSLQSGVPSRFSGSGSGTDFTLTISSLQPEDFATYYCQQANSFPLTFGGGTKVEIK", "=", 137),
    ("ZAP122m27 Fab (Fab, V domains shown, Fab) VH: QVQLQESGPGLVKPSETLSLTCTVSGGSISSDFWGWIRQPPGKGLEWIGYISSRGSTNYNPSLKRRVTISVDTSRNQFSLKLSSVTAADTAVYYCARSAGVTDFDAWGQGTLVTVSS VL: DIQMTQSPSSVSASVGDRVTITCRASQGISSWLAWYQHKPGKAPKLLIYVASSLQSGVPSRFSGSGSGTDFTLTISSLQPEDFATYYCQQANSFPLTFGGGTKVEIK", "<", 24.2),
    ("ZAP122m16 Fab (Fab, V domains shown, Fab) VH: QVQLQESGPGLVKPSETLSLTCTVSGGSISSDFWGWIRQPPGKGLEWIGYISYRGSTNYNPSLKRRVTISVDTSRNQFSLKLSSVTAADTAVYYCARSAGVTDFDFWGQGTLVTVSS VL: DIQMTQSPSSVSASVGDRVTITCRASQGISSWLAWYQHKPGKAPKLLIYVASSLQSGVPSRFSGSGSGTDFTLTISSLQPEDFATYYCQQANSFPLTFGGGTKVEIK", "<", 28.3),
]
